- TARGET_OR_SYSTEM: UniProtKB A8MUK1
- PROCEDURE_SUMMARY: ubiquitin-specific protease 17 DUB inhibitors, concentration-effect assay, cell-free, verification of initial screening actives (AID 1645864)
- ASSAY_CONTEXT: purified USP17, ubiquitin-rhodamine cleavage fluorescence, 3 h
Calls of active or inactive are those of the source.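 The calls were made as follows: active = maximal inhibition of USP17 at or above 30% in the confirmation dose-response, a value not among the printed readouts; inactive = the rest.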
Select the matching outcome among label 1 = active, label 0 = inactive

Answered examples (10):
COMPOUND	CAT
Cc1ccc2cccc(OCc3nnc(SCC(=O)c4ccc(Cl)cc4)n3C)c2n1	label 1
CC(=O)c1ccc(NC(=O)C[n+]2cc(-c3ccc(Cl)cc3)n3c2CCC3)cc1	label 1
COc1ncccc1CN1CCn2c(Cn3cccn3)cnc2C1C (stereo not given)	label 0
Cc1nn(CC(=O)Nc2ccc(Br)c3cccnc23)c(=O)c2ccccc12	label 1
COc1ccc(CNC(=O)c2[nH]nc3c2CCc2ccccc2-3)cc1	label 1
O=C(/C=C/c1ccc(F)cc1)N1CCc2ccccc2C1	label 1
CCC(=O)N1c2ccccc2NC2=C(C(=O)CC(c3ccccc3OCc3ccccc3)C2)C1c1ccccc1 (stereo not given)	label 1
COc1ccc(C2CC(=O)Nc3ccc4ccccc4c32)c(OC)c1OC (stereo not given)	label 1
COc1ccc(C2SCC(=O)Nc3c2c(=O)[nH]n3C2CCCCCC2)cc1 (stereo not given)	label 1
Cc1ccc(Nc2nc(O)c(CC(=O)Nc3ccccc3C)s2)cc1C	label 1

# fetch the recorded call for CCCCC/C=C/C=C/C(=O)OC1C(O)CC(c2ccc3c(c2O)C(=O)c2c(O)cc4cc(C)cc(O)c4c2C3=O)OC1C (stereo not given) here
label 1

====

- TARGET_OR_SYSTEM: Ubiquitin carboxyl-terminal hydrolase 17-like protein 5 (Homo sapiens)
- PROCEDURE_SUMMARY: ubiquitin-specific protease 17 DUB inhibitors, concentration-effect assay, cell-free, verification of initial screening actives (AID 1645864)
- ASSAY_CONTEXT: purified USP17, ubiquitin-rhodamine cleavage fluorescence, 3 h
The source made the active and inactive calls.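 How the source made its calls: active means maximal inhibition of USP17 at or above 30% in the confirmation dose-response, a value not among the printed readouts; inactive means the rest.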
Please answer using one outcome listed in 1 (active), 0 (inactive)

MOLECULE	CAT
Clc1cc2nc(N3CCN(c4ccccn4)CC3)c3nncn3c2cc1Cl	1
COc1ccc(C(=O)CSc2nnc(-c3cccnc3)n2-c2ccccc2)cc1	0
Cc1cc(C)nc(-n2nc(C)c3c2NC(=O)CSC3c2ccc(F)cc2F)n1 (stereo not drawn)	1
Cc1nnc(-c2nnc(NCc3ccc(Cl)cc3)c3ccccc23)o1	0
Cc1c(Cl)cccc1NC(=O)Cn1c(=O)c2ccccc2n2nncc12	0

Name the outcome recorded for "Fc1ccc(Cn2ccc(-c3cnc(-c4ccccc4)s3)n2)cc1" in the assay.
0

Assay result, entry Cc1ccc(C(=O)N2CCCC3(C2)Nc2cccnc2NC3=NC2CCCC2)s1 (stereo not drawn) — outcome?
0

Which outcome was entered for the molecule "Cc1cc(Cl)ccc1NC(=O)c1cc(-c2cccnc2)n[nH]1" in this test?
0

====

- TARGET_OR_SYSTEM: Ubiquitin carboxyl-terminal hydrolase 17-like protein 5 (Homo sapiens) (UniProt A8MUK1)
- Sequence (A8MUK1 whole entry, looked up): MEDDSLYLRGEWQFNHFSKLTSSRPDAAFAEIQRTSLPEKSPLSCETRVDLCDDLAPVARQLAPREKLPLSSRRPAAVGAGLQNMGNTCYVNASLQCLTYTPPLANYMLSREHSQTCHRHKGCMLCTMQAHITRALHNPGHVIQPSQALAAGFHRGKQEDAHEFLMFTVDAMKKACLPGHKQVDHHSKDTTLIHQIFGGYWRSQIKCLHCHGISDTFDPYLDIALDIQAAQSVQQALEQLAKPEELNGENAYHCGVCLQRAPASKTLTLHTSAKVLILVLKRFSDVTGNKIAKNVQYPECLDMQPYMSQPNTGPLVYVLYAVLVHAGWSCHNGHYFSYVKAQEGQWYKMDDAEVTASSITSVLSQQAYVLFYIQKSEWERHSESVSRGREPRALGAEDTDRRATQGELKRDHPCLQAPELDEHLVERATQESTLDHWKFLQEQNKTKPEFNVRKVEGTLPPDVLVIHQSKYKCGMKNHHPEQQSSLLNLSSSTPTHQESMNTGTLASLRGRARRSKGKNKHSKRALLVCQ
- PROCEDURE_SUMMARY: ubiquitin-specific protease 17 DUB inhibitors, concentration-effect assay, cell-free, verification of initial screening actives (AID 1645864)
- ASSAY_CONTEXT: purified USP17, ubiquitin-rhodamine cleavage fluorescence, 3 h
Active and inactive are the calls of the source.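 Rule for the calls: active = maximal inhibition of USP17 at or above 30% in the confirmation dose-response, a value not among the printed readouts; inactive = the rest.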
Please reply with one of these outcomes: yes (1) (active), no (0) (inactive)

MOLECULE	CAT
Cc1ccc(-c2ncc(C(=O)NCc3cccc(C)c3)c(-c3ccncc3)n2)cc1	no (0)

Could you check what this test reported for O=C(CNS(=O)(=O)c1ccc(F)cc1)N1CCCC(c2nnc3ccccn23)C1 (stereo unspecified) ?
no (0)

Lab log entry: "CC(C)(C)c1ccc(C(=O)Nc2ccc(Cn3cncn3)cc2)cc1" — outcome as called in the assay?
no (0)

Returns: the outcome recorded for Cc1nn(Cc2ccccc2)c(Cl)c1C(=O)NC1CCCc2ccccc21 (stereo unspecified) in this assay.
no (0)

What outcome does the record of this test show for "Cc1ccc(C)c(-n2c(C)cc(/C=C3/C(=N)N4C(c5ccc(F)cc5)=CSC4=NC3=O)c2C)c1" ?
no (0)

What did the test return for "CCOc1ccccc1C(=O)Nc1ccc2c(c1)Sc1ncccc1C(=O)N2C" ?
no (0)

// return assay outcome for COc1ccc(COC(=O)C2=C(C)NC(=O)CC2c2cccc([N+](=O)[O-])c2)cc1 (stereo unspecified)
no (0)

Can you look up the reported call for "CCCCNc1nc2c(-c3ccccc3)nnn2c2ccccc12" for me?
yes (1)

What is the recorded call for this molecule in the test? "Cn1cc(CCNC(=O)c2cc3ccccc3[nH]2)c2cccnc21"
no (0)

Kindly provide the recorded test outcome for the following molecule: COc1ccc2cc1Oc1cc(ccc1OC)C(O)C13SSC4(C(=O)N1C)C(O)C1=COC=CC(OC2=O)C1N4C3=O (stereo unspecified)
no (0)
